biological target: Human IgG (Calbiochem; San Diego Calif.) (human); experiment: IgG displaced from peptide pin; competitor MSP1-19
ΔF (%) values by entry
// units = %; emit number, no label

{"Binder": "PDSYP [Peptide# 81]", "Measurement": 9}

--- query ---
q: Could you share which ΔF (%) value was measured for NNGGC [Peptide# 52] ?
a: 6
